The origin of these recorded values is patent EP2974737A1.

# Target Of Assay: T1, purified interference factor(s) from Donor B (human)
# T1 construct: the text names the donors 8, 19 and 30; also called interference in serum from Donor B
# Assay Method Text: SPR, interference factor immobilized; % of Fig. 9 reference
Measurement Kind: interference binding, % of Reference Sequence
The reply must contain the numeric value and, after it, the unit.

Input: State its interference binding, % of Reference Sequence: SEQ ID NO: 73 (VHH) VHH: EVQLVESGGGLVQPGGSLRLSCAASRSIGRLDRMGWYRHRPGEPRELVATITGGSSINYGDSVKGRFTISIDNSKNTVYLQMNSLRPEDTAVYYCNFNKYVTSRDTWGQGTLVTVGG
Output: 8%

Input: Quote interference binding, % of Reference Sequence reported for SEQ ID NO: 80 (VHH) VHH: EVQLVESGGGLVQPGGSLRLSCAASRSIGRLDRMGWYRHRPGEPRELVATITGGSSINYGDSVKGRFTISIDNSKNTVYLQMNSLRPEDTAVYYCNFNKYVTSRDTWGQGTLVQVGG please.
Output: 5%
